B1: scFv; the commonest letter at each place (parent)
chain 1: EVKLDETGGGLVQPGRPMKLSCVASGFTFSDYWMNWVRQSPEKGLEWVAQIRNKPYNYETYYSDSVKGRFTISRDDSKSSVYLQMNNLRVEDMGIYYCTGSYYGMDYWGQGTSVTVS
chain 2: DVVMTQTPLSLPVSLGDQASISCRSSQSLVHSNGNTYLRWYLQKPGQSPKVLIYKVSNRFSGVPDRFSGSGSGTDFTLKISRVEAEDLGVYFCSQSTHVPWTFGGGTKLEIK

- Variants of: B1
- methodNotes: yeast surface expression (ratio to wild type); higher = more expressed
- testParameters: format: scFv 4-4-20, heavy + light

{"change": "chain 1 D106T Y107V", "yeast surface expression": 0.829}
{"change": "chain 1 T28K W33S", "yeast surface expression": 0.995}
{"change": "chain 1 S101P Y102V W108C", "yeast surface expression": 0.1}
{"change": "chain 1 W108S G109R", "yeast surface expression": 0.307}
{"change": "chain 1 Y32L", "yeast surface expression": 0.893}
{"change": "chain 1 S30I D31H W33C", "yeast surface expression": 0.449}
{"change": "chain 1 S101M Y103A", "yeast surface expression": 0.658}
{"change": "chain 1 T28Q Y32S", "yeast surface expression": 0.926}
{"change": "chain 1 Y32K W33E", "yeast surface expression": 0.552}
{"change": "chain 1 T28L D31G", "yeast surface expression": 0.717}
{"change": "chain 1 Y102L G109M", "yeast surface expression": 0.185}
{"change": "chain 1 S30H N35D", "yeast surface expression": 0.828}
{"change": "chain 1 D106H Y107A", "yeast surface expression": 0.455}
{"change": "chain 1 Y102R M105G", "yeast surface expression": 0.754}
{"change": "chain 1 G100Q Y103R D106L", "yeast surface expression": 0.235}
{"change": "chain 1 W33L V37D", "yeast surface expression": 0.591}
{"change": "chain 1 Y103P D106H", "yeast surface expression": 0.565}
{"change": "chain 1 Y107D", "yeast surface expression": 0.779}
{"change": "chain 1 Y103H Y107Q", "yeast surface expression": 0.941}
{"change": "chain 1 D106I G109C", "yeast surface expression": 0.203}
{"change": "chain 1 M34K V37W", "yeast surface expression": 0.494}
{"change": "chain 1 T28M S30A W36F", "yeast surface expression": 0.845}
{"change": "chain 1 W33V V37S", "yeast surface expression": 0.535}
{"change": "chain 1 F29L Y32F", "yeast surface expression": 0.72}
{"change": "chain 1 S101Y Y107P", "yeast surface expression": 0.489}
{"change": "chain 1 V37T", "yeast surface expression": 0.626}
{"change": "chain 1 F29H", "yeast surface expression": 0.884}
{"change": "chain 1 S101I Y102V", "yeast surface expression": 0.488}
{"change": "chain 1 Y107M G109Q", "yeast surface expression": 0.353}
{"change": "chain 1 M34Y N35V", "yeast surface expression": 0.434}
{"change": "chain 1 N35M", "yeast surface expression": 0.715}
{"change": "chain 1 S101F W108K", "yeast surface expression": 0.217}
{"change": "chain 1 W36M", "yeast surface expression": 0.721}
{"change": "chain 1 Y102K Y103D", "yeast surface expression": 1.24}
{"change": "chain 1 Y102A D106S", "yeast surface expression": 1.06}
{"change": "chain 1 M105K Y107L G109V", "yeast surface expression": 0.223}
{"change": "chain 1 Y32T", "yeast surface expression": 1.04}
{"change": "chain 1 F29A S30D M34K", "yeast surface expression": 0.41}
{"change": "chain 1 G104L W108G", "yeast surface expression": 0.178}
{"change": "chain 1 M105P W108S", "yeast surface expression": 0.621}
{"change": "chain 1 V37F", "yeast surface expression": 0.9}
{"change": "chain 1 D106I W108N", "yeast surface expression": 0.254}
{"change": "chain 1 N35H V37Y", "yeast surface expression": 0.779}
{"change": "chain 1 S30T V37W", "yeast surface expression": 0.671}
{"change": "chain 1 T28D D31E V37E", "yeast surface expression": 0.567}
{"change": "chain 1 G100Y G109P", "yeast surface expression": 0.22}
{"change": "chain 1 G104F W108R", "yeast surface expression": 0.146}
{"change": "chain 1 M34E W36M", "yeast surface expression": 0.428}
{"change": "chain 1 D31P W33F", "yeast surface expression": 0.78}
{"change": "chain 1 S101W Y107K", "yeast surface expression": 0.427}
{"change": "chain 1 G100P M105S G109M", "yeast surface expression": 0.234}
{"change": "chain 1 D31W W33L N35I", "yeast surface expression": 0.49}
{"change": "chain 1 W33Q N35Y", "yeast surface expression": 0.315}
{"change": "chain 1 M105H W108Q", "yeast surface expression": 0.294}
{"change": "chain 1 Y103Q M105G", "yeast surface expression": 0.906}
{"change": "chain 1 W33I N35Y V37C", "yeast surface expression": 0.443}
{"change": "chain 1 S101Q M105V", "yeast surface expression": 0.835}
{"change": "chain 1 Y32W W36Q", "yeast surface expression": 0.936}
{"change": "chain 1 Y32R W36Y", "yeast surface expression": 0.635}
{"change": "chain 1 T28S V37S", "yeast surface expression": 0.757}
{"change": "chain 1 M105F G109L", "yeast surface expression": 0.369}
{"change": "chain 1 D31R W36N", "yeast surface expression": 1.06}
{"change": "chain 1 F29D S30K", "yeast surface expression": 0.968}
{"change": "chain 1 Y32T M34E", "yeast surface expression": 0.451}
{"change": "chain 1 G100K G104H", "yeast surface expression": 0.322}
{"change": "chain 1 Y32M W36M", "yeast surface expression": 0.672}
{"change": "chain 1 T28P M34S", "yeast surface expression": 0.95}
{"change": "chain 1 Y102R M105N", "yeast surface expression": 0.764}
{"change": "chain 1 F29N M34H", "yeast surface expression": 0.665}
{"change": "chain 1 F29D V37D", "yeast surface expression": 0.557}
{"change": "chain 1 D31R Y32D", "yeast surface expression": 0.643}
{"change": "chain 1 Y32V M34Q", "yeast surface expression": 0.849}
{"change": "chain 1 F29P D31R", "yeast surface expression": 0.86}
{"change": "chain 1 Y103G M105N", "yeast surface expression": 1.46}
{"change": "chain 1 S101N G109N", "yeast surface expression": 0.267}
{"change": "chain 1 G100Q G109M", "yeast surface expression": 0.223}
{"change": "chain 1 D31S V37N", "yeast surface expression": 0.629}
{"change": "chain 1 M105C W108M", "yeast surface expression": 0.656}
{"change": "chain 1 G100D S101W", "yeast surface expression": 0.171}
{"change": "chain 1 S30H N35E", "yeast surface expression": 0.504}
{"change": "chain 1 N35F V37A", "yeast surface expression": 0.871}
{"change": "chain 1 Y103P W108M", "yeast surface expression": 0.463}
{"change": "chain 1 G104S", "yeast surface expression": 0.799}
{"change": "chain 1 G109D", "yeast surface expression": 0.573}
{"change": "chain 1 M34W N35M", "yeast surface expression": 0.653}
{"change": "chain 1 W33N V37Q", "yeast surface expression": 0.415}
{"change": "chain 1 Y32E N35G", "yeast surface expression": 1}
{"change": "chain 1 G100N M105T", "yeast surface expression": 0.413}
{"change": "chain 1 S101P Y107F W108F", "yeast surface expression": 0.239}
{"change": "chain 1 M105R G109W", "yeast surface expression": 0.232}
{"change": "chain 1 F29C", "yeast surface expression": 0.885}
